The reader will find reported Inhibition values listed item by item below.
# Tested on: Plasmodium falciparum
# experiment.description: GSK_TCMDC: Inhibition of Plasmodium falciparum 3D7 in whole red blood cells, using parasite LDH activity as an index of growth. Test compounds present at 2uM
# Assay type: functional
# unit: % | format: bare number

Nc1nc(N)c2c(Oc3cccc(Cl)c3)cccc2n1 ... 97

Fill in: Inhibition on Plasmodium falciparum, entry Cc1c(CNCCCNc2nc3cscc3[nH]2)sc(C(F)F)c1Br.Cl 99

Tell me Inhibition of CN1CCC(NCc2cccc(-c3ccc(S(=O)(=O)NCc4ccccc4)c(F)c3)c2)CC1.O=C(O)C(F)(F)F when tested on Plasmodium falciparum. 99

Look up and report measured Inhibition (Plasmodium falciparum) for the following compound: Cc1ccc(NC(=O)c2cn(-c3ccccc3)nc2-c2ccc(F)cc2)cc1[N+](=O)[O-] 92

Look up Plasmodium falciparum data: Inhibition of Cc1nnsc1C(=O)Nc1cccc(-c2cccc(-c3nc4cccc(C)c4[nH]3)c2)c1 , then report it. 99

State measured Inhibition of the compound CC(=O)c1c(Cc2cccc(C(F)(F)F)c2)c[nH]c1C with Plasmodium falciparum. 94

Would you please give the reported Inhibition of Cc1nnsc1C(=O)Nc1cccc(-c2cccc(-c3nc4ccccc4[nH]3)c2)c1 with Plasmodium falciparum? 100

Report measured Inhibition on Plasmodium falciparum; entry: COc1ccc(NC(=O)Nc2nc(-c3ccc(Cl)c(C)c3)cs2)cc1N1CCN(C)CC1.Cl 99

Under Plasmodium falciparum, report Inhibition for COc1cccc2cc(C(=O)N[C@@H](CC(C)C)C(=O)N[C@H](/C=N/N3C(=O)CN(Cc4ccccc4)C3=O)CCc3ccccc3)oc12 85

----------
# Test system: Plasmodium falciparum
# experiment.description: GSK_TCMDC: Inhibition of Plasmodium falciparum 3D7 in whole red blood cells, using parasite LDH activity as an index of growth. Test compounds present at 2uM
# Assay type: functional
reported.endpoint: Inhibition (%)
Numbers only here, please. The scale is %.

COc1ccc2c(c1CNCCCCCCNCc1c(OC)ccc3c1CCCC3)CCCC2 ... 94

Specify Inhibition for Cc1cc(N/N=C/c2ccc([N+](=O)[O-])cc2)c2ccc(F)cc2n1 and stop. 100

Fill in reported Inhibition for this entry: COc1ccc2nccc([C@@H](O)CN3CCC(NC(=O)c4cccc(C(=O)c5ccccc5)c4)CC3)c2c1 99

Given the compound COc1ccccc1C(=O)Nc1ccc(Nc2nc(C)cc(N(C)C)n2)cc1 , write its reported Inhibition. 100

# return recorded Inhibition for input COc1cc2nc(SCCCC#N)n(C3CCCCCC3)c(=N)c2cc1OC 89

For CC(C)NCC(O)Cn1c2ccc(Br)cc2c2cc(Br)ccc21 (centres undefined) , write its Inhibition. 99

Using the record for S=C(NCCc1ccccc1)Nc1ccc2ncsc2c1 , state its measured Inhibition. 96

In one line, give reported Inhibition of the entry CCCc1cc(Cc2cnc(N)nc2N)cc(CC)c1O.Cl . 87

Identify measured Inhibition associated with Cl.N=C(N)c1cc(Cl)cc(NC(=O)Nc2cc(Cl)cc(C(=N)N)c2)c1 92

Provide one value: measured Inhibition of Br.Cc1ccc(OCCCON2C(=N)N=C(N)NC2(C)C)cc1C 96

Using the record for CC(Cc1ccc(OCCN2CCN(c3cccc(Cl)c3)CC2)cc1)NCC(O)c1cccc(C(F)(F)F)c1.Cl (centres undefined) , state its measured Inhibition. 99

----------
# System: HepG2
# experiment.description: GSK_TCMDC: Percent inhibition of human HepG2 cell line. Test compounds present at 10uM.
# Assay type: functional
Lab note - cut at 6% for Inhibition: rule met if strictly below, rule not met if not.

Example results:
CN1CCCN(c2ccnc3cc4c(cc23)N(C(=O)c2ccc(Cl)cc2)CC4)CC1.Cl ... rule met
CCCCCCNC(=O)C1Cc2c([nH]c3cc(Cl)ccc23)C2(CCN(CCC)CC2)N1 (centres undefined) ... rule not met
COc1cc(OC)cc(-c2nnc(Sc3ccc(C#N)c([N+](=O)[O-])c3)n2C)c1 ... rule met
O=C(NCCCCN1CCC(c2ccc3c(c2OCc2ccccn2)CCCC3)CC1)c1ccc(NC(=O)c2ccc(Cl)cc2)cc1 ... rule not met
NCCO.O=C(Nc1ccc([N+](=O)[O-])cc1Cl)c1cc(Br)cc(Cc2ccccc2)c1O ... rule not met
CC(C)NCc1ccc(-c2ccc(-c3nc4cc(C(F)(F)F)ccc4[nH]3)s2)cc1.O=C(O)C(F)(F)F ... rule not met
CC1(C)N=C(N)N=C(N)N1c1cc(Cl)c(Cl)cc1Cl.Cl ... rule not met

API: the following record is the query input.
For this molecule, is Inhibition lower than 6%? COc1ccc(CNC(=O)c2cc3c(=O)n4ccccc4nc3n(CCc3ccccc3)c2=N)cc1 rule not met

----------
# System: HepG2
# experiment.description: GSK_TCMDC: Percent inhibition of human HepG2 cell line. Test compounds present at 10uM.
# Type: functional
reported.endpoint: Inhibition (%)
Respond numerically; units are % and should not be typed.

Please review the following examples before continuing.
COc1ccc(C=NN=c2c3ccccc3[nH]c3ccccc23)c2ccccc12 ... 9
Cc1ccc(-c2cc(C(=O)Nc3ccc(S(=O)(=O)N4CCCC(C)C4)cc3)[nH]n2)c(O)c1 (stereo not given) ... 32
COc1cccc(CN2CCC(N3CCc4cc(NC(=O)c5cc(C)on5)ccc43)C2)c1OC (stereo not given) ... 9

Provide HepG2 Inhibition reading for O=C(Nc1ccc(Cl)cc1F)NC1CCN(CCCCCNC(=O)C2CC2c2ccc(Cl)c(Cl)c2)CC1 (stereo not given) . 46

GET Inhibition where system = HepG2 and item = CS(=O)(=O)c1ccccc1CNC(=O)c1ccc(-c2ccc(-c3nc4cc(C(F)(F)F)ccc4[nH]3)s2)cc1 90

----------
The reader will find reported Inhibition values listed item by item below.
# System: HepG2
# experiment.description: GSK_TCMDC: Percent inhibition of human HepG2 cell line. Test compounds present at 10uM.
# Assay type: functional
Write the value in % as a bare number.

O=C(/C=C/c1ccc(Cl)cc1Cl)N1CCC(CCN2CCC(c3c[nH]c4ccccc34)CC2)CC1 ... 94

Write down Inhibition measured for item O=C(Nc1ccc(-c2cccc(-c3nc4cc(F)ccc4[nH]3)c2)cc1)c1cnn2cccnc12 10

Indicate the recorded Inhibition value for this molecule: O=C(Nc1cccnc1)c1cc(C(=O)Nc2cccnc2)cc([N+](=O)[O-])c1 0

Hello, please tell me recorded Inhibition for this one: CS(=O)(=O)c1ccc(-c2cncc(Cl)n2)cc1 8

Report measured Inhibition; entry is CC1(CCCCN2CCC(Oc3ccc(F)cc3F)CC2)C(=O)Nc2ccccc21.Cl (stereo not given) 6

# return recorded Inhibition for entry c1ccc(-c2nnc(-c3ccccn3)nc2NC2CCCCC2)cc1 74

Supply reported Inhibition belonging to this molecule: Cc1cc(N[C@@H](Cc2ccccc2)C(=O)NC2CCCC2)nc(NCC2CCCCC2)n1.O=C(O)C(F)(F)F 18

Supply reported Inhibition belonging to this molecule: CN1CCC(Oc2cc(CN3CC[C@H](NC(=O)c4ccc(Cl)c(Cl)c4)C3)ccc2I)C1.O=C(O)C(F)(F)F (stereo not given in full) 68

Retrieve Inhibition measured for Cc1cccc(C)c1CNc1ccnc2cc(C#N)ccc12.Cl and print it. 20

Identify measured Inhibition associated with COC(=O)c1cc(/C(C)=N/Nc2nc3ccccc3[nH]2)ccc1O 9

----------
# Test system: Plasmodium falciparum
# experiment.description: GSK_TCMDC: Inhibition of Plasmodium falciparum Dd2 in whole red blood cells, using parasite LDH activity as an index of growth. Test compounds present at 2uM
# Type: functional
Labelling field: enter True if recorded Inhibition is less than 50%. Enter False if it equals or exceeds that cut-off.

CCC1N=C(N)N=C(N)N1OCc1ccc(Cl)c(Cl)c1 (stereo not given) ... False
COc1ccc(C2CCC(NCCCCNC(=O)c3ccc(NC(=O)c4ccc(Cl)cc4)cc3)CC2)cc1 (stereo not given) ... True
COc1ccc(N2CCN(CCCCNC(=O)c3ccc(NC(=O)c4cc(C(F)(F)F)cc(C(F)(F)F)c4)cc3)CC2)c(OC)c1 ... False

Does this compound meet the criterion Inhibition < 50%? O=C(Nc1ccc2c(c1)CCC2)c1ccc(CN2CCCN(Cc3cccc(O)c3)CC2)cc1.O=C(O)C(F)(F)F True

Does the reported Inhibition of Cc1ccc2nc(Cl)c3cc(C(=O)NCCCN4CCCC4)sc3c2c1 stay below 50%? True

----------
# Tested on: HepG2
# experiment.description: GSK_TCMDC: Percent inhibition of human HepG2 cell line. Test compounds present at 10uM.
# Assay type: functional
The following compounds are shown together with reported Inhibition values.
Express it in %; write the number only.

CCC(C)NC(=O)CN1CN(c2ccccc2)C2(CCN(C(=O)c3ccc(C(C)(C)C)cc3)CC2)C1=O (centres undefined) ... 0
O=C(Nc1ccc(F)cc1)c1ccc(C(=O)NC2CCN(CC3CCCCC3)CC2)cc1.O=C(O)C(F)(F)F ... 34
Cc1cccc(Nc2nc(C)cc(N3CCCN(CC4CCCCC4)CC3)n2)c1 ... 20

Provide Inhibition value for the following compound: CN(C)CCCc1cc2c(cc1Cl)CCN2C(=O)Nc1ccc(-c2ccncc2)c2ccccc12 4

Recall and state the measured Inhibition for Fc1ccc2c(NN=Cc3ccccc3F)ccnc2c1 . 10

Using the record for N#Cc1ccc(N2CCN(Cc3cccc(-c4ccc(-c5nc6cc(C(F)(F)F)ccc6[nH]5)s4)c3)CC2)nc1.O=C(O)C(F)(F)F , state its measured Inhibition. 31
